Where do these numbers come from? They come from patent US4839366A.

experiment: Acute toxicity, single oral administration; details: mouse, in vivo; oral, single administration, male mice; interpolation on Probits paper; read-out: LD50 approx
assayReadout: LD50

What measured LD50 goes with Cc1cc(/N=C(\Nc2nccs2)NC2CCCCC2)c2ccccc2n1 [timegadine, reference compound] ? > 1000 mg/kg

###

test: Acute effect on gastrointestinal tract: gastric ulcers in the rat; assay type: in vivo; details: rat, in vivo, po
assayReadout: TD50 at 5 h (µmol/kg)
// return numeric value only (unit: µmol/kg, not printed)

1. Cc1cc(/N=C(\Nc2nccs2)NC2CCCCC2)c2ccccc2n1 [timegadine, reference compound] | 413

What measured TD50 at 5 h goes with CSc1cc(NC(=Nc2nccs2)NC2CCCCC2)c2ccccc2n1 [Compound I] ? 887

###

experiment: Acute toxicity, single oral administration; details: mouse, in vivo, po; read-out: LD50 approx
assayReadout: LD50

What measured LD50 goes with CSc1cc(NC(=Nc2nccs2)NC2CCCCC2)c2ccccc2n1 [Compound I] ? > 1000 mg/kg
